All values here come from PubChem BioAssay (NCI).

Test system: TK-10 renal
method: NCI tumour cell line growth inhibition, 48 h
# GI50 listing for each entry below

compound: Cc1ccc(C2CC(c3ccc(Nc4ccnc5cc(Cl)ccc45)cc3)=NN2C=O)cc1 (stereo not given)
measuredMetric: GI50
measuredValue: > 100 µM
--
compound: CC[C@H]1OC(=O)[C@H](C)[C@@H](O[C@H]2C[C@@](C)(OC)[C@@H](O)[C@H](C)O2)[C@H](C)[C@@H](O[C@@H]2O[C@H](C)C[C@H](N(C)C)[C@H]2O)[C@](C)(OC)C/C(C)=C2/O[C@@]1(C)C=C2C
measuredMetric: GI50
measuredValue: 1.72 µM
--
compound: COc1ccc2c(c1)C(=O)c1c-2c(OCCN(C)C)nc2cc(OC)c(OC)cc12
measuredMetric: GI50
measuredValue: 13.9 µM
--
compound: CC(O)[C@H](NC(=O)N[C@@H](CC(N)=O)c1nc(N2CCNCC2)no1)C(=O)O (stereo not given in full)
measuredMetric: GI50
measuredValue: > 100 µM
--
compound: CC1(C)C2CCC13C(=O)C1OC3(C2)C2C(=O)c3c(ccc4c3ccc3ccccc34)C(=O)C12 (stereo not given)
measuredMetric: GI50
measuredValue: > 87.5 µM
--
compound: CCOC(=O)c1c(NC(=O)c2ccc(Cl)cc2)sc2c(CN(C)C)c(O)ccc12
measuredMetric: GI50
measuredValue: 14.5 µM
--
compound: CCc1ccc2c(c1)N(CCO)C1=C(C(=O)OC1)C2c1cc(OC)c(OC)c(OC)c1 (stereo not given)
measuredMetric: GI50
measuredValue: 0.248 µM
--
compound: COc1ccc(-c2cc(/C=C/C(=O)c3ccc(N)cc3)[nH]n2)cc1
measuredMetric: GI50
measuredValue: 2.81 µM
--
compound: N#Cc1cc(S(=O)(=O)Nc2nc3cc(Cl)ccc3o2)c(SCc2ccccc2)cc1Cl
measuredMetric: GI50
measuredValue: 14.8 µM
--
compound: OCC(O)C(O)C(O)C(O)c1nnc2c(-c3ccccc3)nc3ccccc3n12 (stereo not given)
measuredMetric: GI50
measuredValue: 29.2 µM

Shifting focus to the compound that follows.
Query string: Please give the documented GI50 of CCOC1Oc2ccc(C)cc2C(=O)/C1=C\Nc1ccc(S(N)(=O)=O)cc1 (stereo not given)
Result string: 15.7 µM
